All values here come from paper PMC7367873.

tested on: GFP-14-3-3β and its binding proteins; assay: GFP-14-3-3β co-IP with LC-MS/MS label-free quantification, untreated versus PP1c-treated; set-up: species or system human; settings: PP1 vs untreated; LFQ intensities; 3 replicates each
List of Difference (log2), PP1 vs untreated values.
Kindly provide the numeric value in log2 only, without the unit symbol.

{"molecule": "ATP5J2 (protein, UniProt P56134 2-94, looked up) ATP synthase F(0) complex …: ASVGECPAPVPVKDKKLLEVKLGELPSWILMRDFSPSGIFGAFQRGYYRYYNKYINVKKGSISGITMVLACYVLFSYSFSYKHLKHERLRKYH", "assay-result": 0.4378}

Now for a further molecule.
Given item ATP5C1 (protein, UniProt P36542 26-298, looked up) ATP synthase F(1) complex …: ATLKDITRRLKSIKNIQKITKSMKMVAAAKYARAERELKPARIYGLGSLALYEKADIKGPEDKKKHLLIGVSSDRGLCGAIHSSIAKQMKSEVATLTAAGKEVMLVGIGDKIRGILYRTHSDQFLVAFKEVGRKPPTFGDASVIALELLNSGYEFDEGSIIFNKFRSVISYKTEEKPIFSLNTVASADSMSIYDDIDADVLQNYQEYNLANIIYYSLKESTTSEQSARMTAMDNASKNASEMIDKLTLTFNRTRQAVITKELIEIISGAAALD , the value recorded as its Difference (log2), PP1 vs untreated is 0.4773
